Molecular target: ErbB4 on neonatal rat cardiomyocytes (rat) (UniProt Q62956)
Sequence (Q62956 26-1308): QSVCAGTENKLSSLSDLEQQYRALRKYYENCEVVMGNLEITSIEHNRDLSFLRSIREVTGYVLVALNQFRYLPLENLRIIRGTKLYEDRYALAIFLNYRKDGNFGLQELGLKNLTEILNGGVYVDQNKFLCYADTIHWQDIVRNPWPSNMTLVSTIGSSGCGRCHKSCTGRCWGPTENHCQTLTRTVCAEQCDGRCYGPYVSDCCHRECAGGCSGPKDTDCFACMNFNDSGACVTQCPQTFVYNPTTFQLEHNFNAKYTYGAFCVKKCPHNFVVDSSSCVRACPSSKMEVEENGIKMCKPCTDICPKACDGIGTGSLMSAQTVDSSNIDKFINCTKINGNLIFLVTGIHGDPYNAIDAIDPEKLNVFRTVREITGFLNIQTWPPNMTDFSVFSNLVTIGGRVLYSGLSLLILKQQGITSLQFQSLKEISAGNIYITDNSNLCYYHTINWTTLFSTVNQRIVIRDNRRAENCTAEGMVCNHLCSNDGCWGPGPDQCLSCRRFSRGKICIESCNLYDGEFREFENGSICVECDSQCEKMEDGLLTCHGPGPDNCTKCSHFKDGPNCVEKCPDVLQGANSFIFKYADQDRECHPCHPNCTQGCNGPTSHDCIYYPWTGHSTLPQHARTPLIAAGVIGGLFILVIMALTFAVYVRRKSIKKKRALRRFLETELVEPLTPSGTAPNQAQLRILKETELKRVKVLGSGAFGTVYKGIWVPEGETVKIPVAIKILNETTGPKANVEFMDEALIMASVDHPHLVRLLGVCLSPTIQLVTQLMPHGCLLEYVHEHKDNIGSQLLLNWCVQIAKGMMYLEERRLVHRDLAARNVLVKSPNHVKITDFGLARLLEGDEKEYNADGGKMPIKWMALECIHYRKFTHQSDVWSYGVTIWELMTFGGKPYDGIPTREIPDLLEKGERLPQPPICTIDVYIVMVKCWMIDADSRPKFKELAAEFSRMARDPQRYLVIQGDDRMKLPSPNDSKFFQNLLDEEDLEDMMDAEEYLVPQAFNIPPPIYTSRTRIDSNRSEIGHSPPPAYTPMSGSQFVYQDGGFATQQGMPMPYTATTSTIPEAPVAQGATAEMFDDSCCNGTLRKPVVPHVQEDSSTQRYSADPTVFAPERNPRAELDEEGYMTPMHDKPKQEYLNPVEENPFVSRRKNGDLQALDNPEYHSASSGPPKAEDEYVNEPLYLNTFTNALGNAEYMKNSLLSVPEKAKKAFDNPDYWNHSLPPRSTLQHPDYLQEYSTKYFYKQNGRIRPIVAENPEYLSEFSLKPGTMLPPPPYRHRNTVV
Test: cell-based or functional assay
metric: CM % Agonism AVG (%)
State the answer as a number, implicitly in %.

binder	units-text	CM % Agonism AVG
huNRG1(S177-F229)(NRGE1C) (E47A_D48P_F49H_M50I) 6xHis (ligand) SHLVKCGEKHKSFCVNGGECFMIEGPSNPSRYLCKCPNEFTGDRCQAPHIASFGGGGEGGGGAGGGGHHHHHH	%	96.5

Give reported CM % Agonism AVG value for huNRG1(S177-Q237)(NRGE1I)::GG::huFcSEFL2 (Pb) (Fc fusion) SHLVKCGENDKSFCVNGGECFMIEGPSNPSRYLCKCPNEFTGDRCQDDFMASFYKAEELYQGGDKTHTCPPCPAPELLGGPSVFLFPPKPKDTLMISRTPEVTCVVVDVSHEDPEVKFNWYVDGVEVHNAKTKPCEEQYGSTYRCVSVLTVLHQDWLNGKEYKCKVSNKALPAPIEKTISKAKGQPREPQVYTLPPSREEMTKNQVSLTCLVKGFYPSDIAVEWESNGQPENNYKTTPPVLDSDGSFFLYSKLTVDKSRWQQGNVFSCSVMHEALHNHYTQKSLSLSPGK
67

Give reported CM % Agonism AVG value for huNRG1(S177-Q237)(NRGE1D)::GG::huFcSEFL2 (Pb) (Fc fusion) SHLVKCGESHKSFCVNGGECYMVEGSSIPSRYLCKCPNEFTGDRCQEDFMASFYKAEELYQGGDKTHTCPPCPAPELLGGPSVFLFPPKPKDTLMISRTPEVTCVVVDVSHEDPEVKFNWYVDGVEVHNAKTKPCEEQYGSTYRCVSVLTVLHQDWLNGKEYKCKVSNKALPAPIEKTISKAKGQPREPQVYTLPPSREEMTKNQVSLTCLVKGFYPSDIAVEWESNGQPENNYKTTPPVLDSDGSFFLYSKLTVDKSRWQQGNVFSCSVMHEALHNHYTQKSLSLSPGK
83
